details: in n-propanol, 283.15 K
Quantity Kind: solubility (mole fraction)

I'd like to know its solubility (mole fraction). The compound in question is O=C(Nc1ccccc1)Nc1ccnc(Cl)c1 0.0198

* * *

conditions: in ethanol, 318.15 K
Quantity Kind: solubility (mole fraction)
One number for each entry.

For the compound O=C(Nc1ccccc1)Nc1ccnc(Cl)c1 , what solubility (mole fraction) is on record? 0.0495

* * *

settings: in n-propanol, 308.15 K
Quantity Kind: solubility (mole fraction)
Answers are plain numbers.

What value of solubility (mole fraction) has been reported for the following compound? O=C(Nc1ccccc1)Nc1ccnc(Cl)c1 0.0385

* * *

settings: in acetone, 313.15 K
Quantity Kind: solubility (mole fraction)

solubility (mole fraction) lookup needed for O=C(Nc1ccccc1)Nc1ccnc(Cl)c1 , thanks. 0.0544

* * *

conditions: in n-propanol, 278.15 K
Quantity Kind: solubility (mole fraction)
Give bare numbers.

Recorded solubility (mole fraction) for O=C(Nc1ccccc1)Nc1ccnc(Cl)c1 , please? 0.0171

* * *

conditions: in ethanol, 293.15 K
Quantity Kind: solubility (mole fraction)
Give bare numbers.

Return reported solubility (mole fraction); argument: O=C(Nc1ccccc1)Nc1ccnc(Cl)c1 0.0248

* * *

settings: in methanol, 313.15 K
Quantity Kind: solubility (mole fraction)
Answers are plain numbers.

Given the compound O=C(Nc1ccccc1)Nc1ccnc(Cl)c1 , what is its reported solubility (mole fraction)? 0.0366

* * *

conditions: in n-propanol, 318.15 K
Quantity Kind: solubility (mole fraction)

Bench note: what solubility (mole fraction) did O=C(Nc1ccccc1)Nc1ccnc(Cl)c1 show? 0.0515

* * *

settings: in acetone, 293.15 K
Quantity Kind: solubility (mole fraction)
Answers are plain numbers.

What value of measured solubility (mole fraction) is listed for O=C(Nc1ccccc1)Nc1ccnc(Cl)c1 ? 0.0384

* * *

conditions: in acetone, 278.15 K
Quantity Kind: solubility (mole fraction)
Give bare numbers.

# get_value(readout='solubility (mole fraction)', item= O=C(Nc1ccccc1)Nc1ccnc(Cl)c1 ) 0.03

* * *

settings: in methanol, 298.15 K
Quantity Kind: solubility (mole fraction)
One number for each entry.

Need solubility (mole fraction), item O=C(Nc1ccccc1)Nc1ccnc(Cl)c1 0.0219

* * *

settings: in n-propanol, 323.15 K
Quantity Kind: solubility (mole fraction)
Answers are plain numbers.

Value lookup for solubility (mole fraction); key = O=C(Nc1ccccc1)Nc1ccnc(Cl)c1 0.0582

* * *

conditions: in acetone, 298.15 K
Quantity Kind: solubility (mole fraction)

Which solubility (mole fraction) value is on record for O=C(Nc1ccccc1)Nc1ccnc(Cl)c1 ? 0.042

* * *

details: in ethanol, 303.15 K
Quantity Kind: solubility (mole fraction)
Numbers only.

// lookup solubility (mole fraction) for O=C(Nc1ccccc1)Nc1ccnc(Cl)c1 0.0325

* * *

conditions: in ethanol, 313.15 K
Quantity Kind: solubility (mole fraction)
One number for each entry.

Query (compound): O=C(Nc1ccccc1)Nc1ccnc(Cl)c1 ; field requested: solubility (mole fraction) 0.043

* * *

conditions: in methanol, 278.15 K
Quantity Kind: solubility (mole fraction)
Answers are plain numbers.

For O=C(Nc1ccccc1)Nc1ccnc(Cl)c1 , what is its reported solubility (mole fraction)? 0.0119

* * *

details: in acetone, 323.15 K
Quantity Kind: solubility (mole fraction)
Answers are plain numbers.

Consider the molecule shown here: O=C(Nc1ccccc1)Nc1ccnc(Cl)c1 What is its recorded solubility (mole fraction)? 0.0672

* * *

conditions: in methanol, 308.15 K
Quantity Kind: solubility (mole fraction)
Give bare numbers.

GET /values?readout=solubility (mole fraction)&item= O=C(Nc1ccccc1)Nc1ccnc(Cl)c1 0.0305

* * *

conditions: in methanol, 293.15 K
Quantity Kind: solubility (mole fraction)
Answers are plain numbers.

Value lookup for solubility (mole fraction); key = O=C(Nc1ccccc1)Nc1ccnc(Cl)c1 0.0183

* * *

conditions: in acetone, 318.15 K
Quantity Kind: solubility (mole fraction)
Answers are plain numbers.

Tell me the measured solubility (mole fraction) of O=C(Nc1ccccc1)Nc1ccnc(Cl)c1 , please. 0.0606

* * *

details: in ethanol, 308.15 K
Quantity Kind: solubility (mole fraction)

What value of solubility (mole fraction) has been reported for the following molecule? O=C(Nc1ccccc1)Nc1ccnc(Cl)c1 0.0373

* * *

conditions: in methanol, 288.15 K
Quantity Kind: solubility (mole fraction)
One number for each entry.

Which solubility (mole fraction) value is on record for O=C(Nc1ccccc1)Nc1ccnc(Cl)c1 ? 0.0155

* * *

conditions: in acetone, 308.15 K
Quantity Kind: solubility (mole fraction)

Using the record for O=C(Nc1ccccc1)Nc1ccnc(Cl)c1 , report its solubility (mole fraction). 0.0488
